Experimental system: RBD-biotin
Assay remarks: BLI
Readout type: Kd (nM)

Binder	Units label	Relation symbol	Meas value
Ab 27 (Fc fusion) VH: QVQLVQSGTEVKKPGASVKVSCKASGYSFTGSHLHWVRQAPGQGLEWMGWINPDSGVINYAQKFQGRVTLTRDTSISTAYMELSGLRSDDTAVYYCARDKAIGYVWALDYWGQGTLVTVSS VL: QSALTQPPSVSGSPGQSVTISCTGTSSDVGTYNRVSWYQQPPGKAPKLMIYEVSNRPSGVSNRFSGSKSGNTASLTISGLQAEDEADYYCSSYTRTFTYVFGTGTKVTVL	nM	=	0.906
Ab 20 (scFv, V domains shown) VH: QVQLVQSGGGSVKPGGSLRLSCAASGYRLSDYYMHWVRQAPGKGLEWVANIKQDGSEKYYVDSVKGRFTISRDNAKNSLYLQMNSLRAEDTAVYYCARVRGWSRGYFDYWGQGTLVTVSS VL: NFMLTQPHSVSESPGKTVTISCTGSSGSIASNYVQWYQQRPGSAPTTVIYEDNQRPSGVPDRFSGSIDSSSNSASLLISGLKTEDEADYYCQSYDSSNHWVFGGGTKLTVL	nM	=	1.9
Ab 15 (Fc fusion) VH: QVQLVQSGGGLVKPGRSLRLSCTASGFTFGDYAMSWFRQAPGKGLEWVGFIRSKAYGGTTGYAASVKGRFTISRDDSKSIAYLQMNSLKTEDTAVYYCTTADDDMDVWGKGTTVTVSS VL: NFMLTQPHSVSESPGKTVTISCTRSSGTIASNYVQWYQQRPGSAPTTVIYEDNQRPSGVPDRFSGSIDRSSNSASLTISGLTPDDEADYYCQSYDTSNHYVFGTGTKVTVL	nM	=	6.61
Ab 17 (scFv, V domains shown) VH: QVQLVQSGGGVVQPGRSLRLSCAASGFTFDDYAMHWVRQVPGKGLEWVSGIDWNSGVIGYADSVKGRFTISRDNVKNSLYLQMNSLRTEDSALYYCAKDIGPGGSGSYYAFDIWGQGTTVTVSS VL: QSALTQPASVSGSPGQSITISCTGTSSDVGGSKYVSWYQQHPGKAPKVMIYDVTKRPSGVPDRFSGSKSGNTASLTISGLQAEDEADYYCAAWDDSLNGVVFGGGTKLTVL	nM	=	0.882
Ab 23 (Fc fusion) VH: EVQLVQSGAEVKKPGSSVKVSCRSSGGTFSTYGITWVRQAPGQGLEWMGRIIPSLGIPNYAQKFQGRVTITADTSVSTAWMELSSLESDDTAIYYCARENIDLATNDFWGQGTLVTVSS VL: QSALTQPPSASGSPGQSVTISCTGTSRDIGAYGYVSWYQQVPGKAPKLIIYEVRNRPSGVSSRFSGSKSGNTASLTISGLQAEDEADYYCSSYTSSSTLDVVFGGGTKLTVL	nM	<	0.001
Ab 18 (scFv, V domains shown) VH: EVQLVQSGGGVVQPGRSLRVSCAASGFSFSRYGMHWVRQAPGKGLEWVAFIRHDGSKKYYADSVEGRFTISRDNSRNTVSLEMNSLRGEDTAVYYCAKDGRLEAALDDWGQGTLVTVSS VL: NFMLTQPHSMSGSAGKTVTVSCIRSSGSIANNFVQWYQQRPGSAPTTVIYEDNQRPSGVPDRFSGSIDSSSNSASLTISGLKTEDEADYYCQSYDSSNLVFGGGTRLTVL	nM	=	2.31
Ab 13 (scFv, V domains shown) VH: QVTLKESGPKLVKPTQTLTLTCTFSGFSLSTSGVGVGWIRQPPGKALEWLALIYWDDDKRYSPSLKSRLTIAKDTSKYQVVLTMTNMDPVDTATYYCARISGSGYFYPFDIWGQGTMVTVSA VL: NFMLTQPHSVSESPGKTVTISCTRSSGSIASNYVQWYQQRPGSAPTTVIYEDNQRPSGVPDRFSGSIDSSSNSASLTISGLKTEDEADYYCQSYDSSNLWVFGGGTKLTVL	nM	=	0.922
Ab 21 (scFv, V domains shown) VH: QVQLVQSGGGLVQPGGSLRLSCATSGFTFDDYAMHWVRQAPGKGLEWVSGISWNSGSIGYVDSVKGRFTISRDNRNNKVYLQMNNLRAEDTAVYYCARDWWGSIDHWGLGTLVTVSS VL: QSALTQPRSVSGSPGQSVTISCTGTSSDVGGYDYVSWYQQHPGKAPKLIIYDVSKRPSGVPDRFSGSKSGNTASLTVSGLQAEDEADYYCSSYTSSSPVVFGGGTKLTVL	nM	=	1.48
